# System: T47D, breast ductal carcinoma
# procedure_details: CellTiter-Glo cell viability assay, cancer cell cytotoxicity/anti-proliferation panel (Chempartner)
# Assay type: cell-based
# cond: T47D; 72 hours; compounds 10 μM starting, STS 2 μM starting, 10-pt, 3-fold dilution
# Procedure: In this study, the biological activity of certain compounds of the present invention on cancer cell cytotoxicity/anti-proliferation panel was tested using the CellTiter-Glo® cell viability assay. The compounds were dissolved in DMSO to make 10 mM solution. […] Inhibition (%) and absolute IC50 (μM) of each compound was calculated with XLFit curve fitting software that is compatible to Activity Base.

molecule | Inhibition (%)
CCCCCc1cc2c(c(O)c1C(=O)O)[C@@H]1C=C(C)CC[C@H]1C(C)(C)O2 [THCA, tetrahydrocannabinolic acid, reference compound] | 18.20
CCCCCc1cc2c(c(O)c1C(=O)NCCCN1CCOCC1)[C@@H]1C=C(C)CC[C@H]1C(C)(C)O2 [Ia9] | 97.90
CCCCCc1cc2c(c(O)c1C(=O)NCCN(C)C)[C@@H]1C=C(C)CC[C@H]1C(C)(C)O2 [Ia6] | 84.19
CCCCCc1cc2c(c(O)c1C(=O)N/N=C/c1ncccn1)[C@@H]1C=C(C)CC[C@H]1C(C)(C)O2 [Ia16] | 47.20
